Listed compounds paired with reported log10(Ki)
Molecular target: first (BD1: amino acids K57-E168) bromodomain of BRD4 (Homo sapiens, UniProt O60885)
Construct: His-tagged first (BD1: amino acids K57-E168)
Assay: TR-FRET bromodomain binding assay, BRD4 BD1
Conditions: TR-FRET assay protocol (A-G, compound concentration range); Ki calculated from IC50, probe Kd and probe concentration; read-out: TR-FRET Binding Ki: BRD4 (BDI_K57-E168)
EXPERIMENTAL ENDPOINT: log10(Ki) (log10 of the value in nM)

>  <ITEM SMILES>
Cn1cc(-c2cc(NS(C)(=O)=O)ccc2Oc2ccc(F)cc2F)c(-c2ccc(N3CCOCC3)cc2)cc1=O

>  <EXPERIMENTAL SYSTEM>
first (BD1: amino acids K57-E168) bromodomain of BRD4 (Homo sapiens, UniProt O60885)

>  <log10(Ki)>
1.39

$$$$
>  <ITEM SMILES>
Cc1ccc(-c2cc(=O)n(C)nc2-c2ccccc2Oc2ccccc2)o1

>  <EXPERIMENTAL SYSTEM>
first (BD1: amino acids K57-E168) bromodomain of BRD4 (Homo sapiens, UniProt O60885)

>  <log10(Ki)>
3.33

$$$$
>  <ITEM SMILES>
CCS(=O)(=O)Nc1ccc(Oc2ccc(F)cc2F)c(-c2cn(C)c(=O)cc2OC2CCC2)c1

>  <EXPERIMENTAL SYSTEM>
first (BD1: amino acids K57-E168) bromodomain of BRD4 (Homo sapiens, UniProt O60885)

>  <log10(Ki)>
0.32

$$$$
>  <ITEM SMILES>
CCOc1cc(=O)n(C)cc1-c1cc(NC(=O)C2(c3ccccc3)CC2)ccc1Oc1ccc(F)cc1F

>  <EXPERIMENTAL SYSTEM>
first (BD1: amino acids K57-E168) bromodomain of BRD4 (Homo sapiens, UniProt O60885)

>  <log10(Ki)>
2.17

$$$$
>  <ITEM SMILES>
COc1cc(=O)n(C)nc1-c1cc(NS(=O)(=O)CC(F)(F)F)ccc1Oc1ccccc1

>  <EXPERIMENTAL SYSTEM>
first (BD1: amino acids K57-E168) bromodomain of BRD4 (Homo sapiens, UniProt O60885)

>  <log10(Ki)>
1.99

$$$$
>  <ITEM SMILES>
COCCCNC(=O)c1ccc(-c2cc(=O)n(C)nc2-c2ccccc2Oc2ccccc2)cc1

>  <EXPERIMENTAL SYSTEM>
first (BD1: amino acids K57-E168) bromodomain of BRD4 (Homo sapiens, UniProt O60885)

>  <log10(Ki)>
2.40

$$$$
>  <ITEM SMILES>
Cn1cc(-c2cc(NS(=O)(=O)CC(F)(F)F)ccc2Oc2ccccc2)ccc1=O

>  <EXPERIMENTAL SYSTEM>
first (BD1: amino acids K57-E168) bromodomain of BRD4 (Homo sapiens, UniProt O60885)

>  <log10(Ki)>
1.50

$$$$

Source: patent US9561231B2
